System under test: Bromodomain-containing protein 4 (Homo sapiens, UniProt O60885)
Particulars: at 100 µM
Description: Inhibition of BRD4 bromodomain-1 (unknown origin) at 100 uM by europium based LANCE TR-FRET assay
The source made the active and inactive calls. The calls are words filed in the database; no cut-off is given here.
Quantity: inhibition

Query :: Consider the compound shown here: Cc1ccccc1C(=O)Nc1ncnc2[nH]cnc12 What is its recorded inhibition?
Result :: 40.4%

Query :: Consider the compound shown here: O=C(Nc1cccc2c1ncn2C(=O)c1ccccc1)c1ccccc1 What is its recorded inhibition?
Result :: 7.2%

Query :: Consider the compound shown here: O=C1CCC(N2C(=O)c3ccccc3C2=O)C(=O)N1 (configuration not stated) What is its recorded inhibition?
Result :: inactive

Query :: Consider the compound shown here: c1ccc(CNc2ncnc3[nH]cnc23)cc1 What is its recorded inhibition?
Result :: inactive

Query :: Consider the compound shown here: O=C(Nc1cccc2ncccc12)c1ccccc1 What is its recorded inhibition?
Result :: 16.4%

Query :: Consider the compound shown here: O=C(Nc1cccc2[nH]cnc12)c1ccccc1 What is its recorded inhibition?
Result :: 4.8%

Query :: Consider the compound shown here: O=C(Nc1ncnc2[nH]cnc12)c1ccc(Br)cc1 What is its recorded inhibition?
Result :: 36.7%

Query :: Consider the compound shown here: COc1ccc(C(=O)Nc2ncnc3[nH]cnc23)c(OC)c1 What is its recorded inhibition?
Result :: 40.8%

Okay, next one:
Query :: Consider the compound shown here: O=C(c1ccccc1)N(C(=O)c1ccccc1)c1ccncn1 What is its recorded inhibition?
Result :: 11%

###

pIC50 values for the molecules below.
System under test: Bromodomain-containing protein 4 (Homo sapiens)
Assay notes: Inhibition of BRD4 bromodomain-1 (unknown origin) by europium based LANCE TR-FRET assay
Please treat pIC50 as minus the base-10 logarithm of the molar concentration.

Query :: Consider the molecule shown here: O=C(Nc1ncnc2nc[nH]c12)c1ccccc1 What is its recorded pIC50?
Result :: 4.47

More entries:
Query :: Consider the molecule shown here: CCCOc1ccccc1C(=O)Nc1ncnc2[nH]cnc12 What is its recorded pIC50?
Result :: 4.70

Query :: Consider the molecule shown here: COc1cccc(C(=O)Nc2ncnc3[nH]cnc23)c1OC What is its recorded pIC50?
Result :: 4.10

Query :: Consider the molecule shown here: COc1ccc(C(=O)Nc2ncnc3[nH]cnc23)cc1OC What is its recorded pIC50?
Result :: 5.11

Query :: Consider the molecule shown here: COc1cc(OC)cc(C(=O)Nc2ncnc3[nH]cnc23)c1 What is its recorded pIC50?
Result :: 4.75

Query :: Consider the molecule shown here: CSc1ccccc1C(=O)Nc1ncnc2[nH]cnc12 What is its recorded pIC50?
Result :: 4.53

###

System under test: Bromodomain-containing protein 4 (Homo sapiens)
Particulars: at 100 µM
Active and inactive are the calls of the source. The calls are words filed in the database; no cut-off is given here.
Quantity: inhibition

Examples with answers:
Query :: Consider the compound shown here: C/C(=C\CNc1ncnc2[nH]cnc12)CO What is its recorded inhibition?
Result :: inactive

Query :: Consider the compound shown here: COc1cccc(OC)c1C(=O)Nc1ncnc2[nH]cnc12 What is its recorded inhibition?
Result :: 11.5%

Query :: Consider the compound shown here: Cn1cnc2c(NC(=O)c3ccccc3)ncnc21 What is its recorded inhibition?
Result :: 3.7%

Query :: Consider the compound shown here: Cc1noc(C)c1N1C(=O)c2ccccc2C1=O What is its recorded inhibition?
Result :: inactive

Query :: Consider the compound shown here: O=C(Nc1ncnc2[nH]cnc12)c1cccc(Br)c1 What is its recorded inhibition?
Result :: 44.5%

Query :: Consider the compound shown here: Cc1n[nH]c(C)c1CN1C(=O)c2ccccc2C1=O What is its recorded inhibition?
Result :: inactive

Query :: Consider the compound shown here: O=C(Nc1ncnc2[nH]cnc12)c1ccccc1Br What is its recorded inhibition?
Result :: 39%

More entries:
Query :: Consider the compound shown here: O=C(Nc1ccncn1)c1ccccc1 What is its recorded inhibition?
Result :: 5.8%
